system: BT-549 breast; assay: NCI-60 one-dose screen, 48 h (100 = growth as untreated, 0 = no growth, -100 = all killed); settings: 10 µM unless noted
This is part of a sample that, as a whole, favours compounds with a hit. Of some 83,000 tested, about 20% had one in any assay.
// assign Met if growth falls strictly below 80%, else Not met (ties count as Not met)

Answered cases to consult:
[[record]]
compound = "Cc1ccc2cnc(N)c(C#Cc3cc(C(=O)Nc4ccc(CN5CCN(C)CC5)c(C(F)(F)F)c4)cnc3C)c2c1"
class = "Met"

[[record]]
compound = "O=C(/C=C/C12c3ccccc3C(c3ccccc31)C1C(=O)NC(=O)C12)c1ccco1 (centres undefined)"
class = "Met"


Problem: For this compound, is growth lower than 80%? CSc1nc(-c2ccco2)c(C#N)c(=O)n1C
Solution: Not met

Problem: And the next one, COC(=O)[C@@]1(C)CC[C@]2(C)CC[C@]3(C)C4=CC=C5C(=CC(=O)C(O)=C5C)[C@]4(C)[C@@H](O)C[C@@]3(C)[C@@H]2C1 ?
Solution: Met

Problem: And the next one, Brc1ccc(Nc2nc(Nc3cnc4ccccc4c3)c3[nH]cnc3n2)cc1 ?
Solution: Met

Problem: And the next one, O=C(Nc1ncc(Cc2ccccc2)s1)c1sc2ccccc2c1Cl ?
Solution: Met

Problem: And the next one, O=C(c1c[nH]c2ccccc12)c1n[nH]c(=S)n1-c1ccc([N+](=O)[O-])cc1 ?
Solution: Not met
